Ref: ChEMBL document CHEMBL4513216

Below, each entry is listed alongside its reported INHIBITION.
- Test system: Plasmodium berghei
- experiment-description: Screen against P. berghei liver stage (PbLuc), transformed with Luciferase, at 10uM
- Assay type: functional, HepG2
- condition-description: tested at 10 uM
Among all 69,000 compounds or so, about 8,600 (12%) showed an effect of 50% or more. The full list was thinned out, with strong results kept by preference.
Your reply should be a number followed by the unit it is expressed in.

Consider the worked cases shown below.
- compound: "O=C([C@@H]1COC[C@H]2CN(CC3CC3)C[C@H]21)N1CCC(F)CC1"
  INHIBITION: "12.7%"
- compound: "Cc1cccc(CN2C(=O)CCC23CCN(Cc2cccn2C)CC3)n1"
  INHIBITION: "24.9%"
- compound: "C[C@]1(O)CN(CCC(N)=O)CC[C@@H]1Oc1cccc(F)c1"
  INHIBITION: "53%"

Ask: # lookup: INHIBITION of CC1CN(Cc2cc(C#N)ccc2F)CCN1Cc1nccn1C (configuration not stated)
Reply: 22.95%

Ask: Query: INHIBITION; subject: `O=C([C@H]1COC[C@H]2CN(CC3CCC3)C[C@H]21)N1CCOCC1`
Reply: 24.6%

Ask: Look up INHIBITION for this compound: `C[C@]1(O)CN(CC(=O)N2CCCC2)CC[C@@H]1Oc1cccc(F)c1`
Reply: 41.2%

Ask: Give the measured INHIBITION of `O=C([C@H]1COC[C@H]2CN(CC3CC3)C[C@H]21)N1CCOCC1` .
Reply: 60%

Ask: What value of measured INHIBITION is listed for `CC(=O)NCCc1ccc(S(=O)(=O)Nc2cc(F)ccc2C)s1` ?
Reply: -12.2%

Ask: Please look up its INHIBITION: CCCNC(=O)C1CCN(CC(O)c2ccc(C(F)(F)F)cc2)CC1 (configuration not stated)
Reply: 51.6%

Ask: Sample `O=C(CC1CC1)NCc1cn2c(n1)CN(Cc1nccs1)CC2` — what was its INHIBITION?
Reply: 33.4%

Ask: Entry Cc1csc(C(Cc2ccsc2)NC(=O)CN(C)Cc2ccccn2)n1 (configuration not stated) has what INHIBITION?
Reply: 28.3%

Ask: What value of INHIBITION has been recorded for this entry: Cc1cnn(CC2CCCN2CC(=O)NC2CCOCC2)c1 (configuration not stated)
Reply: 15.3%

Ask: Which INHIBITION is reported for this compound? `Cn1cncc1CN1CC[C@](C)(O)[C@@H](Oc2cccc(F)c2)C1`
Reply: 21.9%

Ask: Suppose we examine the compound `CSCc1noc(CNC(=O)C2CCN(C(C)C)CC2)n1` ; what INHIBITION value has been reported?
Reply: 8.51%

* * *

# INHIBITION values compiled below
- Test system: Plasmodium berghei
- experiment-description: Screen against P. berghei liver stage (PbLuc), transformed with Luciferase, at 10uM
- Type: functional, HepG2
- condition-description: tested at 10 uM
Hit rate of the full screen: of about 69,000 compounds, about 8,600 (12%) showed an effect of 50% or more. Only a selection was taken, and strong results are over-represented in it overall.
Give the value in % but do not write % after it.

- compound: "COc1cccc(CC(=O)N2CC[C@H]3[C@@H]2CCC(=O)N3C)c1"
  recorded-number: -3.51
- compound: "CCS(=O)(=O)c1ccccc1N1CCC(NC(=O)C2CC2)CC1"
  recorded-number: -9.37
- compound: "Cc1nc(N(C)C)ncc1C(=O)NCCCn1nccc1C1CC1"
  recorded-number: 27.5
- compound: "CC(C)(C)Cc1nnc(NCc2ccsc2)o1"
  recorded-number: 53.4

Ask: What value of INHIBITION has been reported for the following compound? `CC1(C)OC(=O)N(CCCC(=O)c2ccc(F)cc2)C1=O`
Reply: -4.12

Ask: Sample `Cc1ccnc(OCC(=O)N2CCN(c3ncccn3)CC2)n1` — what was its INHIBITION?
Reply: -17.8

Ask: Dear colleague, I am looking for the recorded INHIBITION of the following compound: CC(C(=O)Nc1nccs1)N(C)Cc1cccc(C#N)c1 (stereo unspecified)
Reply: 22.6

Ask: May I ask what INHIBITION has been recorded for `CC(=O)N1C[C@@H](c2ccsc2)[C@@H]2CN(Cc3cccc(Cl)c3)CC[C@@H]21` ?
Reply: 65.5

Ask: Which INHIBITION value is on record for `CCN(CC)S(=O)(=O)NCc1ccc(-c2ccc(C(N)=O)c(C)n2)cc1` ?
Reply: -5.8

Ask: What value of INHIBITION has been recorded for this entry: Cc1csc(NC(=O)C2CSCCC(=O)N2)n1 (stereo unspecified)
Reply: 24.5

Ask: What value of INHIBITION has been recorded for this entry: O=C1NCC2CN(Cc3ccccc3OCc3ccccn3)CCN12 (stereo unspecified)
Reply: 50.3

Ask: I would be grateful if you could share the reported INHIBITION for O=C1CCSCC(C(=O)NCc2nc(-c3ccccc3)no2)N1 (stereo unspecified) .
Reply: 14.3

Ask: Field request: INHIBITION | item: Cc1noc(CCCC(=O)N2CCCC2c2ccsc2)n1 (stereo unspecified)
Reply: 0.914

Ask: What value of measured INHIBITION is listed for Cc1cccc(NC(C)C(=O)Nc2nccs2)c1 (stereo unspecified) ?
Reply: 79.8

Ask: I have this compound here, `COCCN1C(=O)[C@@H]2CC[C@H]1CN(c1ncccn1)C2` , and I need its recorded INHIBITION.
Reply: -33.4
